I'd be grateful if you could share measured self-splicing fitness (ln) for these entries.
# assay procedure: self-splicing fitness, log relative to wild type (ln ratio); higher = more splicing; Tetrahymena group I intron in knt gene, E. coli kanamycin selection, DiMSum; sequences stand for … in CUCUCU…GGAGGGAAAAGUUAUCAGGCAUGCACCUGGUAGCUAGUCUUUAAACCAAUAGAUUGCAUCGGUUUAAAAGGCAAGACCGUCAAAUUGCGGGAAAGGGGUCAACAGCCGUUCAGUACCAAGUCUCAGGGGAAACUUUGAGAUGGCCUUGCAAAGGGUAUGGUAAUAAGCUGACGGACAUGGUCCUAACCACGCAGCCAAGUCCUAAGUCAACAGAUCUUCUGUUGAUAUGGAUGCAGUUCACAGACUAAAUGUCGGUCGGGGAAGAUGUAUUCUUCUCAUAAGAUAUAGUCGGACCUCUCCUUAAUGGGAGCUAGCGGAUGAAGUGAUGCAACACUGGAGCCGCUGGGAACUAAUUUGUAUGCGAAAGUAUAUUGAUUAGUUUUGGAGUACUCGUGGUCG;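 note: selection with 25 µg/mL kanamycin versus none on LB agar overnight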
# experimental setup: 37 °C
One number for each entry.

See these solved cases before continuing.
CCCGAGCAAUAUUACGCGCC: -1.22
CCGUAGCAAUAUUACGUCCU: -2.62
GAACAGCAAUAUUACGACGG: -1.81
AUCCAGCAAUAUUACGGACC: 0.282
GGUAAGCAAUAUUACGGUUA: -0.38
CGCAAGCAAUAUUACGCAGG: -1.01
CUGUAGCAAUAUUACGACCG: 0.0218
UGCUAGCAAUAUUACGCAAC: -1.98
AACAAGCAAUAUUACGGGAU: -1.01
GGACAGCAAUAUUACGAAGA: -0.517

For each of the items listed, what is its self-splicing fitness (ln)?
1. CAUUAGCAAUAUUACGAUGU
2. GGCUAGCAAUAUUACGCUUG

Key:
[-3.38, -2.19]

For each of the items listed, what is its self-splicing fitness (ln)?
1. AGAUAGCAAUAUUACGGUGU
2. CUUCAGCAAUAUUACGCAUC
3. UCGAAGCAAUAUUACGGGUC
4. AAGCAGCAAUAUUACGUCAU
5. UAGGAGCAAUAUUACGUGUU
6. UAAAAGCAAUAUUACGUUGU

Key:
-1.15
-2.68
-2.54
-1.76
-2.51
-1.96

###

# assay procedure: self-splicing fitness, log relative to wild type (ln ratio); higher = more splicing; Tetrahymena group I intron in knt gene, E. coli kanamycin selection, DiMSum; sequences stand for … in CUCUCU…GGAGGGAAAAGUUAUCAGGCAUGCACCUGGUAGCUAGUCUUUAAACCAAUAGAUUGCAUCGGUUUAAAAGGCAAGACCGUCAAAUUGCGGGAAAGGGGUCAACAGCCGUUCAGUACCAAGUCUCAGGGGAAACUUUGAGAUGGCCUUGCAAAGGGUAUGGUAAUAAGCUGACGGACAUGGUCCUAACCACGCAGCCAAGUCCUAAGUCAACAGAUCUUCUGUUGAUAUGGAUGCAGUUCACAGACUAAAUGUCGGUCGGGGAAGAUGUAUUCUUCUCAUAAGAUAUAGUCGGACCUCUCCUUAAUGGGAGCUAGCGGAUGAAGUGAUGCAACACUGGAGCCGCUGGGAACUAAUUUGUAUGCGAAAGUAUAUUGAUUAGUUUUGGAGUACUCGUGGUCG
# experimental setup: 30 °C
I'd be grateful if you could share measured self-splicing fitness (ln) for these entries.
Give bare numbers.

UUUCAGCAAUAUUACGCUAC: -2.95
UGCCAGCAAUAUUACGCUCU: -1.42
GCAAAGCAAUAUUACGCAGG: -2.33
UCACAGCAAUAUUACGUAAU: -3.25
UCGGAGCAAUAUUACGCCUU: -2.96

For each of the items listed, what is its self-splicing fitness (ln)?
1. GAUGAGCAAUAUUACGCACC
2. UAAAAGCAAUAUUACGUUGU
3. GUUCAGCAAUAUUACGAUAA
4. UGUUAGCAAUAUUACGUCAC
5. UCCAAGCAAUAUUACGUACC

Key:
1: -1.94; 2: -3.71; 3: -0.196; 4: -3.58; 5: -2.68

###

# assay procedure: self-splicing fitness, log relative to wild type (ln ratio); higher = more splicing; Tetrahymena group I intron in knt gene, E. coli kanamycin selection, DiMSum; sequences stand for … in CUCUCU…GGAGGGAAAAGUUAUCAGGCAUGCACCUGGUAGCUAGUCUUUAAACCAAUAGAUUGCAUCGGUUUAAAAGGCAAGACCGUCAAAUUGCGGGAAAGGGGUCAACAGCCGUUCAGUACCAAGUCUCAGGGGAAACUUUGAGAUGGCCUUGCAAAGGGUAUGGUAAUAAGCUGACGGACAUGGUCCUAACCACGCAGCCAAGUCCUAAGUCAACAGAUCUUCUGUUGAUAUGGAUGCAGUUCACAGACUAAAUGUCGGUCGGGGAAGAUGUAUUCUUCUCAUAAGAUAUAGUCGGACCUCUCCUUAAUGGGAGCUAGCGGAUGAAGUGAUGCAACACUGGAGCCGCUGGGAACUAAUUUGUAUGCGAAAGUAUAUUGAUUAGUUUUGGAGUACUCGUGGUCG
# experimental setup: 30 °C
I'd be grateful if you could share measured self-splicing fitness (ln) for these entries.
One number for each entry.

See these solved cases before continuing.
GUCUAGCAAUAUUACGGCAU: -0.166
CAAAAGCAAUAUUACGACCU: -1.79

For each of the items listed, what is its self-splicing fitness (ln)?
1. ACUGAGCAAUAUUACGUUUG
2. CUAGAGCAAUAUUACGUGGC
3. GUAGAGCAAUAUUACGCUUA
4. GACAAGCAAUAUUACGCCUG
5. ACUAAGCAAUAUUACGCAUC
6. CAAGAGCAAUAUUACGGUCU
7. CGUGAGCAAUAUUACGCUUG
8. CUCGAGCAAUAUUACGGGCA

Key:
-3.97
-3.87
-0.468
-1.3
-3.13
-2.35
-2.56
-2.35

For each of the items listed, what is its self-splicing fitness (ln)?
1. AUAAAGCAAUAUUACGAUAG
2. CCCCAGCAAUAUUACGAUAC

Key:
1. -2.82
2. -3.82

###

# assay procedure: self-splicing fitness, log relative to wild type (ln ratio); higher = more splicing; Tetrahymena group I intron in knt gene, E. coli kanamycin selection, DiMSum; sequences stand for … in CUCUCU…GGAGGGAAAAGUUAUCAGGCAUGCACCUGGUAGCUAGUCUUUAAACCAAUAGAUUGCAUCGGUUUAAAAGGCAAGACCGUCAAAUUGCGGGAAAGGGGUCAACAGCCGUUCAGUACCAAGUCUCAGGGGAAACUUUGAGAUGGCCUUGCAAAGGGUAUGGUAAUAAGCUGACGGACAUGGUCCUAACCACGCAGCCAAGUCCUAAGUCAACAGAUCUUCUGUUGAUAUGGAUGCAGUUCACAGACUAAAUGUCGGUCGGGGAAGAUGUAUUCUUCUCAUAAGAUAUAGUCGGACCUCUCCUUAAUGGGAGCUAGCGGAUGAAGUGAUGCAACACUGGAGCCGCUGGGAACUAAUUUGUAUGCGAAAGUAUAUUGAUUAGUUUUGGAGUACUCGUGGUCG
# experimental setup: 37 °C
quantity: self-splicing fitness (ln)
Numbers only.

See these solved cases before continuing.
ACCCAGCAAUAUUACGUAAA: -0.513
AAAUAGCAAUAUUACGCUUA: -0.735
GGUCAGCAAUAUUACGGAGC: -0.82
UUUGAGCAAUAUUACGCUUU: -1.59
UGAUAGCAAUAUUACGGUUG: 0.392

For each of the items listed, what is its self-splicing fitness (ln)?
1. CUAGAGCAAUAUUACGACUG
2. AGCGAGCAAUAUUACGCUAA
3. CUUAAGCAAUAUUACGCAGU

Key:
[-0.585, -1.85, -2.56]

###

# assay procedure: self-splicing fitness, log relative to wild type (ln ratio); higher = more splicing; Tetrahymena group I intron in knt gene, E. coli kanamycin selection, DiMSum; sequences stand for … in CUCUCU…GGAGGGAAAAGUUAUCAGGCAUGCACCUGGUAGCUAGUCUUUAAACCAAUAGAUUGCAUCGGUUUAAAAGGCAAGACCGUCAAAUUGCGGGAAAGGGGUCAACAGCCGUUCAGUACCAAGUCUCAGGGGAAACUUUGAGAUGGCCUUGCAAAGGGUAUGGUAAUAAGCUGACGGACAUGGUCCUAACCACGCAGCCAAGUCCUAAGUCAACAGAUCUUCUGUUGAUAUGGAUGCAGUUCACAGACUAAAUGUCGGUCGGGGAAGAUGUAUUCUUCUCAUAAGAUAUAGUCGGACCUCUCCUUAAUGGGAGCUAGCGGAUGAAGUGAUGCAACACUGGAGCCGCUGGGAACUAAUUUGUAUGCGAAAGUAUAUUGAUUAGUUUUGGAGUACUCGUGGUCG
# experimental setup: 37 °C
quantity: self-splicing fitness (ln)
Numbers only.

See these solved cases before continuing.
UUACAGCAAUAUUACGUAAA: -0.34
GAGAAGCAAUAUUACGCCGG: 0.0344
GAUUAGCAAUAUUACGCUCG: -0.397
AGGAAGCAAUAUUACGAGAG: -2.29
CCCCAGCAAUAUUACGAAAA: -2.57

For each of the items listed, what is its self-splicing fitness (ln)?
1. GACUAGCAAUAUUACGUUCU
2. UGUUAGCAAUAUUACGACAA
3. CUAAAGCAAUAUUACGAAAC
4. AUGUAGCAAUAUUACGACUG
5. UCUCAGCAAUAUUACGGUUC
6. UGCCAGCAAUAUUACGAUGC

Key:
1. -0.968
2. 0.123
3. -2.67
4. -0.461
5. -1.73
6. -2.35

For each of the items listed, what is its self-splicing fitness (ln)?
1. UGUGAGCAAUAUUACGGAUU
2. AGGUAGCAAUAUUACGGGGG

Key:
[-1.59, -2.94]

For each of the items listed, what is its self-splicing fitness (ln)?
1. AAAAAGCAAUAUUACGGAAA
2. UUCAAGCAAUAUUACGGUUG
3. AAAAAGCAAUAUUACGGUGA
4. UAAAAGCAAUAUUACGAGCG
5. GGGAAGCAAUAUUACGUUCU
6. AGCCAGCAAUAUUACGGUAC
7. GUACAGCAAUAUUACGCGCA

Key:
[-1.58, -2.41, -0.362, -0.191, -3.52, -1.24, -0.616]
